Cited source for all entries: PubChem BioAssay (Tox21)

experiment: qHTS assay to identify small molecule agonists of the sonic hedgehog signaling (Shh) pathway - cell viability counter screen (AID 1259366); conditions: NIH/3T3 Gli1-Luc viability, CellTiter-Fluor, 24 h; series mostly up to 92.4 µM; note: nearly all actives have a fitted effect of over 50% in size
Records with an inconclusive call do not appear. Active and inactive are the calls of the source. Calls come from the whole dose curve; as a rule, active = well fitted cell-killing curve with a large enough effect in the repeat runs; inconclusive = weak or mixed curves, or effect the other way; inactive = flat fitted curve, though single readings scatter.
The categories you may choose from are T for active, F for inactive

How did this test come out for `ClCCl` ?
F

How did this test come out for `Cc1ccc(O)c(O)c1` ?
T

How did this test come out for `O=c1c(O)c(-c2ccc(O)cc2O)oc2cc(O)cc(O)c12` ?
F

How did this test come out for CC(C(=O)O)c1ccc2c(c1)[nH]c1ccc(Cl)cc12 (centres undefined) ?
F

How did this test come out for `COC(=O)c1ccccc1C` ?
F

How did this test come out for C#CC1(O)CC[C@H]2[C@@H]3CCC4=CCCC[C@@H]4[C@H]3CC[C@@]21C (some centres undefined) ?
T

How did this test come out for `C#C[C@]1(OC(C)=O)CC[C@H]2[C@@H]3CCC4=C[C@@H](OC(C)=O)CC[C@@H]4[C@H]3CC[C@@]21C` ?
F

How did this test come out for `CCCCCc1ccc(Cl)cc1` ?
F

How did this test come out for `CCCc1ccc(OCC(=O)N2CCN(C(=O)COc3ccc(CCC)cc3OC)CC2)c(OC)c1` ?
F

How did this test come out for `Clc1sc(Cl)c(Cl)c1Cl` ?
F

How did this test come out for `C#C[C@]1(OC(C)=O)CC[C@H]2[C@@H]3CCC4=C/C(=N/O)CC[C@@H]4[C@H]3CC[C@@]21CC` ?
F

How did this test come out for `COc1ccc2c(c1)c(CC(=O)OC/C=C(\C)CC/C=C(\C)CCC=C(C)C)c(C)n2C(=O)c1ccc(Cl)cc1` ?
F

How did this test come out for `CNC(=O)c1ccccc1Sc1ccc2c(/C=C/c3ccccn3)n[nH]c2c1` ?
T

How did this test come out for `O=C1CCc2cc(OCCCCc3nnnn3C3CCCCC3)ccc2N1` ?
F

How did this test come out for `CN(C)Cc1ccccc1O` ?
F

How did this test come out for `C=C(C)c1cccc(C(=C)C)c1` ?
F

How did this test come out for `CC(C)OC(=O)C(O)(CC(=O)O)CC(=O)O` ?
F

How did this test come out for `CC(C)=CCNc1ncnc2c1ncn2[C@@H]1O[C@H](CO)[C@@H](O)[C@H]1O` ?
T

How did this test come out for `CC1(C)CCC[C@]2(C)[C@H]3CCO[C@]3(C)CC[C@@H]12` ?
F

How did this test come out for `CCO[Si](OCC)(OCC)OCC` ?
F

How did this test come out for `CC1(C)CCC[C@]2(C)[C@H]3CC(=O)O[C@]3(C)CC[C@@H]12` ?
F

How did this test come out for `COc1cc(S(=O)(=O)O)c(C)cc1N=Nc1c(O)ccc2cc(S(=O)(=O)O)ccc12` ?
T

How did this test come out for `CCCCCCCCCCCCCC[N+](C)(C)Cc1ccccc1` ?
T

How did this test come out for `O=[N+]([O-])c1ccc(F)c(Cl)c1` ?
F
